assay: yeast display, Sf9 membrane polyspecificity reagent, FACS + sequencing; frameworks hold sequencing errors
READOUT: polyreactivity (PSR sort gate)

ITEM SEQUENCE	READOUT	DATA VALUE
QVQLVESGGGLVQAGGSLRLSCAASGRIFLTNAMGWYRQAPGKERELVAAITSGGSTYYADSVKGRFTISRDNAKNTVYLQMNSLKPEDTAVYYCNADTDRYWPYEYDYWGQGSQVTVSS	polyreactivity (PSR sort gate)	low polyreactivity
QVQLVESGGGLVQAGGSLRLSCAASGRTFWSNDMGWYRQAPGKEREFVAVISRSGSTTYYADSVKGRFTISRDNAKNTVYLQMNSRKPEDTAVYYCAADRVRSYFSRYYSTPLDYYLGQGTQVTVSS	polyreactivity (PSR sort gate)	high polyreactivity
QVQLVESGGGLVQAGGSLRLSCAASGLTLPWYAMGWYRQAPGKERELVAAITWDGTRTYYADSVKGRFTISRDNAKNTVYLQMNSLKPEDTAVFYCNARRVRGTFYRSGVVGYSYWGHGTQVTVSS	polyreactivity (PSR sort gate)	high polyreactivity
QDQLVESGGGLVQAGGSLRLSCAASGSTFSRNAMGWYRQAPGKERELVAAISWRGGRTYYADSVKGRFTISRDNAKNTVYLQMNSLKPEDTAVYYCAAEHKYRYDYWGQGTQVTVSS	polyreactivity (PSR sort gate)	low polyreactivity
QVQLVESGGGLVQAGGSLRLSCAASGSIFTHNAMGWYRQAPGKERELVATISYGGGRTYYADSVKGRFTISRDNAKNTVYLQMNSLKPEDTAVYYCAADVYWYAYVWRKYGYWGQGTQVTVSS	polyreactivity (PSR sort gate)	low polyreactivity
